- system.under.test: FRMPD4, Q14CM0
- Sequence (Q14CM0 67-160): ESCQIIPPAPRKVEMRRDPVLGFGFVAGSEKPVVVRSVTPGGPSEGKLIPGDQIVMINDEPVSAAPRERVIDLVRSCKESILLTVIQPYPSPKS
- method.notes: holdup assay
- Design: key: below the threshold = too weak to quantify, mostly under pKd 3.1 to 4
- condition.details: plain residues with an end cap or a label only (N-terminal biotin on a linker: ado-ado)
observable: pKd

binder: STKRKLASAV [NCF1, P14598]
readout.value: below the threshold
--
binder: KSRVAFFEEL [NF2, P35240;P35240-1]
readout.value: 4.17
--
binder: RFQQRMQTHV [KIRREL1, Q96J84]
readout.value: below the threshold
--
binder: LPAVCYDIDI [PTTG2, Q9NZH5]
readout.value: below the threshold

From: paper PMC9482650
